Molecular target: panel of 442 kinases (Homo sapiens, UniProt P57078)
Construct: purchased Ambit Biosciences (scanMAXX KINOMEscan)
Sequence (P57078 whole entry): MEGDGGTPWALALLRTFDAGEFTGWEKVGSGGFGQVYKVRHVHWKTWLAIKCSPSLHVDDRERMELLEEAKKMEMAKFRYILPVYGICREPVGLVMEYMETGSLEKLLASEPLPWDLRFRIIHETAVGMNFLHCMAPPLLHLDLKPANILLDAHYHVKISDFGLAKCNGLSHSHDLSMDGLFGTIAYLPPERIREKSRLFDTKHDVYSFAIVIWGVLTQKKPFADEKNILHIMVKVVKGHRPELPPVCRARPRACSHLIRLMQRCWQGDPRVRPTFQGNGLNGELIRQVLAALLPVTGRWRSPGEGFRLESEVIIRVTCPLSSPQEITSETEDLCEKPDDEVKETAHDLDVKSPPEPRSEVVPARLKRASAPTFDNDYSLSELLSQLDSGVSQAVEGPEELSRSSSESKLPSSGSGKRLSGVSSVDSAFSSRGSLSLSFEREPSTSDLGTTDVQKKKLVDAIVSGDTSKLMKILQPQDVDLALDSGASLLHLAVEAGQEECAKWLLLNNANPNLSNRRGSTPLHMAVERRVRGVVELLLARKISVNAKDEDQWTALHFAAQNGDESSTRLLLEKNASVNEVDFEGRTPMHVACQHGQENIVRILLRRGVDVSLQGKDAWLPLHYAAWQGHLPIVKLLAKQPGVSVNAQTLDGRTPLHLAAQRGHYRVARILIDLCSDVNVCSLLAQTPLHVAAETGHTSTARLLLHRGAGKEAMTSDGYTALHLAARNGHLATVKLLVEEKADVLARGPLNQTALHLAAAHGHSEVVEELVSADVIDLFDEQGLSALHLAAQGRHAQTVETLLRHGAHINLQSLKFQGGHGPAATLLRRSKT
Test: biochemical
Format: binding
Details: kinase RIPK4; 1 µM; read-out: RIPK4 (% of control at 1 µM)
Provide the recorded remaining activity at 1 µM for the entries that follow.
I only need the number, in %, no unit after it.

Quick note, remaining activity at 1 µM for COc1ncc(-c2ccc3nccc(-c4ccnnc4)c3c2)cc1NS(=O)(=O)c1ccc(F)cc1F [Omipalisib] landed at 70

Quick note, remaining activity at 1 µM for Nc1cc(C(F)(F)F)c(-c2cc(N3CCOCC3)nc(N3CCOCC3)n2)cn1 [Buparlisib] landed at 82

Quick note, remaining activity at 1 µM for Cn1c(=O)n(-c2ccc(C(C)(C)C#N)cc2)c2c3cc(-c4cnc5ccccc5c4)ccc3ncc21 [Dactolisib] landed at 57

Quick note, remaining activity at 1 µM for FC(F)c1nc2ccccc2n1-c1nc(N2CCOCC2)nc(N2CCOCC2)n1 [ZSTK474] landed at 77

====

Biological target: panel of 442 kinases (Homo sapiens, UniProt Q15746)
Construct: purchased Ambit Biosciences (scanMAXX KINOMEscan)
Sequence (Q15746 whole entry): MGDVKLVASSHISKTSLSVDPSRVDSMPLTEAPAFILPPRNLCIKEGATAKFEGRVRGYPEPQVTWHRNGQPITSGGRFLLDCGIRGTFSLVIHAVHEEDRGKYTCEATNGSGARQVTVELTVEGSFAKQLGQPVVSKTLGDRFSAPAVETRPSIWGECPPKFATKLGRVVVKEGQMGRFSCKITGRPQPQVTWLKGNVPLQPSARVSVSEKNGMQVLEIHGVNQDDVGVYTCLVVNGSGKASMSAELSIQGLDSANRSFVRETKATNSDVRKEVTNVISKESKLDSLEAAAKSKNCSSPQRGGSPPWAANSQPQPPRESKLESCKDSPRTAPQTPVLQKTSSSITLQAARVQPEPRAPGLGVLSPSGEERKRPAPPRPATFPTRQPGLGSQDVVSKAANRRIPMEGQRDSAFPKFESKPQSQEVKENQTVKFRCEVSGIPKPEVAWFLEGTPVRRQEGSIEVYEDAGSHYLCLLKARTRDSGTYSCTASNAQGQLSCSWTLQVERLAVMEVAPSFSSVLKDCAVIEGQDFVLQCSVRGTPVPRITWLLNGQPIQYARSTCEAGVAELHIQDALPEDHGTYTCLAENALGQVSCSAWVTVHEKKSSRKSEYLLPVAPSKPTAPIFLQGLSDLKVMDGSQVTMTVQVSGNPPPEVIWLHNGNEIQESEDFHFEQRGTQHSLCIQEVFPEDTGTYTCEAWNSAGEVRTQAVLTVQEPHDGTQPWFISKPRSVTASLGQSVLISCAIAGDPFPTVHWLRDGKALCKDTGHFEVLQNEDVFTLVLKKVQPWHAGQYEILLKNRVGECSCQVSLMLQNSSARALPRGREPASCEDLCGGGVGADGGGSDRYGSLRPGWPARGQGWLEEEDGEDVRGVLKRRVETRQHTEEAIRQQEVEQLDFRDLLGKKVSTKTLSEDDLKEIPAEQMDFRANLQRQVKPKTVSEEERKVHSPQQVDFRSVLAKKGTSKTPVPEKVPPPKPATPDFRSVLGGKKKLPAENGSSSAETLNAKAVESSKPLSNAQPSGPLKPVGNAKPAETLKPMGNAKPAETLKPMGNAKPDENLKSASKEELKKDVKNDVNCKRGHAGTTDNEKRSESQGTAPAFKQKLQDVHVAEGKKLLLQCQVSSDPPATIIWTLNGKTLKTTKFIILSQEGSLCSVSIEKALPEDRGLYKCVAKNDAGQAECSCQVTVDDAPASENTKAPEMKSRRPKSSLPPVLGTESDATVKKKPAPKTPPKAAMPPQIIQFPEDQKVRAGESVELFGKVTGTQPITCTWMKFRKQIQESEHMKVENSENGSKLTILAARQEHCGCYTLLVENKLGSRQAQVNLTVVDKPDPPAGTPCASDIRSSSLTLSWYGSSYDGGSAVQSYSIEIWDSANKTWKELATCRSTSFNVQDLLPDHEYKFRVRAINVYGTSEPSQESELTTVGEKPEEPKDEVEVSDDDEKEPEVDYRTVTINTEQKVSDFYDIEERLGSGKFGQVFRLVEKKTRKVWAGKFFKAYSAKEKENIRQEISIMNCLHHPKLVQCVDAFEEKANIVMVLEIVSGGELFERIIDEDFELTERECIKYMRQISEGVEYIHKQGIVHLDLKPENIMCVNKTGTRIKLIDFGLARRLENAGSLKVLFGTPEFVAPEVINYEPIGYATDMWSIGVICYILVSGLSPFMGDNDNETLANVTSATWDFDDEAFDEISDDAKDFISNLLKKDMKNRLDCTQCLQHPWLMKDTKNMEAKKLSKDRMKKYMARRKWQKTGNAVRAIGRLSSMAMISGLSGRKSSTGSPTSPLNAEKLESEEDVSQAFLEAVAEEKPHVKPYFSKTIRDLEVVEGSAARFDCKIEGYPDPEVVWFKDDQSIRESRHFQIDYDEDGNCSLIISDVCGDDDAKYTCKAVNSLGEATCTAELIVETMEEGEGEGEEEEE
Experiment: biochemical
Assay type: binding
Settings: kinase MYLK; 1 µM; read-out: % of control at 1 µM
reported-endpoint: remaining activity at 1 µM (%)
I only need the number, in %, no unit after it.

Quick note, remaining activity at 1 µM for Nc1cc(C(F)(F)F)c(-c2cc(N3CCOCC3)nc(N3CCOCC3)n2)cn1 landed at 99

Quick note, remaining activity at 1 µM for COc1ncc(-c2ccc3nccc(-c4ccnnc4)c3c2)cc1NS(=O)(=O)c1ccc(F)cc1F landed at 78

Quick note, remaining activity at 1 µM for FC(F)c1nc2ccccc2n1-c1nc(N2CCOCC2)nc(N2CCOCC2)n1 landed at 100

Quick note, remaining activity at 1 µM for Cn1c(=O)n(-c2ccc(C(C)(C)C#N)cc2)c2c3cc(-c4cnc5ccccc5c4)ccc3ncc21 landed at 100

====

Provide the recorded remaining activity at 1 µM for the entries that follow.
Target: panel of 442 kinases (Homo sapiens, UniProt Q8NE63)
Construct: purchased Ambit Biosciences (scanMAXX KINOMEscan)
Sequence (Q8NE63 1-616): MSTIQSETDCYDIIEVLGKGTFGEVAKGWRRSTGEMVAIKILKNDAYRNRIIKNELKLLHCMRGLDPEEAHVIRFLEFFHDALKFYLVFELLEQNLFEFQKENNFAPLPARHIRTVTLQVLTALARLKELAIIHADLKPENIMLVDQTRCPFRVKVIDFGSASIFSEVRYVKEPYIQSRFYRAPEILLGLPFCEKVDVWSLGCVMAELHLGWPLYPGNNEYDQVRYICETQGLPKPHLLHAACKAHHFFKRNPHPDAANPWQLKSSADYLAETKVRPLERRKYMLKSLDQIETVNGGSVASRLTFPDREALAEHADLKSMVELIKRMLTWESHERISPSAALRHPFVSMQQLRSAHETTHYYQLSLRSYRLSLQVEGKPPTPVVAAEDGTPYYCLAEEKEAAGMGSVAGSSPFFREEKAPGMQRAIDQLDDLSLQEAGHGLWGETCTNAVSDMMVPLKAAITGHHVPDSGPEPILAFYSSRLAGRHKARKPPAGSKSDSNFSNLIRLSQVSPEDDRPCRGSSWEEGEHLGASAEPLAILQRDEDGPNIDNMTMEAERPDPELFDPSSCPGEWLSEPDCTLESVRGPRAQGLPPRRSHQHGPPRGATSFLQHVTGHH
Experiment: biochemical
Format: binding
Conditions: kinase HIPK4; 1 µM; read-out: % of control at 1 µM
I only need the number, in %, no unit after it.

Quick note, remaining activity at 1 µM for Nc1cc(C(F)(F)F)c(-c2cc(N3CCOCC3)nc(N3CCOCC3)n2)cn1 landed at 97

Quick note, remaining activity at 1 µM for COc1ncc(-c2ccc3nccc(-c4ccnnc4)c3c2)cc1NS(=O)(=O)c1ccc(F)cc1F landed at 98

Quick note, remaining activity at 1 µM for FC(F)c1nc2ccccc2n1-c1nc(N2CCOCC2)nc(N2CCOCC2)n1 landed at 77

Quick note, remaining activity at 1 µM for Cn1c(=O)n(-c2ccc(C(C)(C)C#N)cc2)c2c3cc(-c4cnc5ccccc5c4)ccc3ncc21 landed at 87

====

Provide the recorded remaining activity at 1 µM for the entries that follow.
Biological target: panel of 442 kinases (Homo sapiens)
Construct: purchased Ambit Biosciences (scanMAXX KINOMEscan)
Experiment: biochemical
Type: binding
Conditions: kinase NEK6; 1 µM; read-out: % of control at 1 µM

Quick note, remaining activity at 1 µM for COc1ncc(-c2ccc3nccc(-c4ccnnc4)c3c2)cc1NS(=O)(=O)c1ccc(F)cc1F landed at 100%

Quick note, remaining activity at 1 µM for Nc1cc(C(F)(F)F)c(-c2cc(N3CCOCC3)nc(N3CCOCC3)n2)cn1 landed at 84%

Quick note, remaining activity at 1 µM for Cn1c(=O)n(-c2ccc(C(C)(C)C#N)cc2)c2c3cc(-c4cnc5ccccc5c4)ccc3ncc21 landed at 100%

Quick note, remaining activity at 1 µM for FC(F)c1nc2ccccc2n1-c1nc(N2CCOCC2)nc(N2CCOCC2)n1 landed at 100%

====

reported-endpoint: pIC50
Note: pIC50 values are expressed as the negative base-10 logarithm of concentration in M.

Value sought: pIC50, system UniProt P48736, item COc1cccc2c1nc(C(F)F)n2-c1nc(N2CCOCC2)nc(N2CCN(S(=O)(=O)CCN(C)C)CC2)n1 [SN32976] . Result: 6.96

Value sought: pIC50, system UniProt P48736, item C=CS(=O)(=O)N1CCN(c2nc(N3CCOCC3)nc(-n3c(C(F)F)nc4c(OC)cccc43)n2)CC1 [M17] . Result: 7.58

Value sought: pIC50, system UniProt P48736, item CNCCS(=O)(=O)N1CCN(c2nc(N3CCOCC3)nc(-n3c(C(F)F)nc4c(OC)cccc43)n2)CC1 [M9] . Result: 7.04

Value sought: pIC50, system UniProt P48736, item COc1cccc2c1nc(C(F)F)n2-c1nc(N2CCOCC2)nc(N2CCN(S(=O)(=O)CCN)CC2)n1 [M8] . Result: 7.17

Value sought: pIC50, system UniProt P48736, item COc1ncc(-c2ccc3nccc(-c4ccnnc4)c3c2)cc1NS(=O)(=O)c1ccc(F)cc1F [Omipalisib] . Result: 8.92

====

Biological target: panel of 442 kinases (Homo sapiens, UniProt Q13163)
Construct: purchased Ambit Biosciences (scanMAXX KINOMEscan)
Sequence (Q13163 whole entry): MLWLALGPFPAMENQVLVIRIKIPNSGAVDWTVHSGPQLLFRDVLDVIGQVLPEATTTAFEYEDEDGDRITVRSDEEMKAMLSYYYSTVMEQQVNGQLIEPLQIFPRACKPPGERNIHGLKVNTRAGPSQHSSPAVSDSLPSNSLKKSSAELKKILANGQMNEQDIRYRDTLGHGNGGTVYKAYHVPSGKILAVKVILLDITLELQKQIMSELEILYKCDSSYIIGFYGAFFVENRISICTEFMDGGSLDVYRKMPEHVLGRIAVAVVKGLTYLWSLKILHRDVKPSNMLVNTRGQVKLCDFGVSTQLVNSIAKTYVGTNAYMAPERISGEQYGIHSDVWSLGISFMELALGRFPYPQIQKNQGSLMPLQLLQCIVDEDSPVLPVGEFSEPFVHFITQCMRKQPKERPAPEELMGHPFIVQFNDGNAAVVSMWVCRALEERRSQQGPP
Assay: biochemical
Format: binding
Settings: kinase MEK5; 1 µM; read-out: % of control at 1 µM
reported-endpoint: remaining activity at 1 µM (%)
I only need the number, in %, no unit after it.

Quick note, remaining activity at 1 µM for FC(F)c1nc2ccccc2n1-c1nc(N2CCOCC2)nc(N2CCOCC2)n1 landed at 99

Quick note, remaining activity at 1 µM for Cn1c(=O)n(-c2ccc(C(C)(C)C#N)cc2)c2c3cc(-c4cnc5ccccc5c4)ccc3ncc21 landed at 42

Quick note, remaining activity at 1 µM for Nc1cc(C(F)(F)F)c(-c2cc(N3CCOCC3)nc(N3CCOCC3)n2)cn1 landed at 88

Quick note, remaining activity at 1 µM for COc1ncc(-c2ccc3nccc(-c4ccnnc4)c3c2)cc1NS(=O)(=O)c1ccc(F)cc1F landed at 69

====

Test: Plasma pharmacokinetics in dogs
Conditions: male, Beagle, dog, po, 10 mg/kg
reported-endpoint: AUC (µM·h)
I only need the number, in µM·h, no unit after it.

Quick note, AUC for COc1cccc2c1nc(C(F)F)n2-c1nc(N2CCOCC2)nc(N2CCN(S(=O)(=O)CCN(C)C)CC2)n1 [SN32976] landed at 3.22

====

Provide the recorded remaining activity at 1 µM for the entries that follow.
Molecular target: panel of 442 kinases (Homo sapiens, UniProt Q9Y4K4)
Construct: purchased Ambit Biosciences (scanMAXX KINOMEscan)
Sequence (Q9Y4K4 whole entry): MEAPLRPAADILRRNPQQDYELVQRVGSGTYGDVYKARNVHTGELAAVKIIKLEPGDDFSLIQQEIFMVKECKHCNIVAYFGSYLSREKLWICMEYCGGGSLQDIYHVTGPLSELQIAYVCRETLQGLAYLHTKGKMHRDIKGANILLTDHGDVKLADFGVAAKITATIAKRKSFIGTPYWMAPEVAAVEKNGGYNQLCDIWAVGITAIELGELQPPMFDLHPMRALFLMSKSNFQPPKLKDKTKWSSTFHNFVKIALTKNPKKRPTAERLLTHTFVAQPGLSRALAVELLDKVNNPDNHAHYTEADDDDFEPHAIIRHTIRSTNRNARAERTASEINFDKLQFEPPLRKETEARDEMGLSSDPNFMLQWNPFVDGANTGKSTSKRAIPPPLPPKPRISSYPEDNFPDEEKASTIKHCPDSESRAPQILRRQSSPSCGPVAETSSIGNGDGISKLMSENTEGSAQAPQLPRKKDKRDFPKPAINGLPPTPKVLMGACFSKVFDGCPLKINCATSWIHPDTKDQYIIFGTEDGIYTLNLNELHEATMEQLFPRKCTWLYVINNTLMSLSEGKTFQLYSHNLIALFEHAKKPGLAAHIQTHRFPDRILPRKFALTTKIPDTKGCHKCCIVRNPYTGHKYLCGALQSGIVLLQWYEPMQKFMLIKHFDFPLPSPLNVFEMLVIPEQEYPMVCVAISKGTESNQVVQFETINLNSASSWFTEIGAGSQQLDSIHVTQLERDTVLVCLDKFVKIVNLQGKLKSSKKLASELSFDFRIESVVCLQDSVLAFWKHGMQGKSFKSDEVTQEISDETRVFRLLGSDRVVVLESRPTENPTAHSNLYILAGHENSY
Assay: biochemical
Assay type: binding
Conditions: kinase MAP4K5; 1 µM; read-out: % of control at 1 µM
I only need the number, in %, no unit after it.

Quick note, remaining activity at 1 µM for Cn1c(=O)n(-c2ccc(C(C)(C)C#N)cc2)c2c3cc(-c4cnc5ccccc5c4)ccc3ncc21 landed at 55

Quick note, remaining activity at 1 µM for Nc1cc(C(F)(F)F)c(-c2cc(N3CCOCC3)nc(N3CCOCC3)n2)cn1 landed at 96

Quick note, remaining activity at 1 µM for FC(F)c1nc2ccccc2n1-c1nc(N2CCOCC2)nc(N2CCOCC2)n1 landed at 99

Quick note, remaining activity at 1 µM for COc1ncc(-c2ccc3nccc(-c4ccnnc4)c3c2)cc1NS(=O)(=O)c1ccc(F)cc1F landed at 100

====

Molecular target: panel of 442 kinases (Homo sapiens)
Construct: purchased Ambit Biosciences (scanMAXX KINOMEscan)
Assay: biochemical
Assay type: binding
Details: DRAK2; 1 µM; read-out: % of control at 1 µM
reported-endpoint: remaining activity at 1 µM (%)
I only need the number, in %, no unit after it.

Quick note, remaining activity at 1 µM for COc1ncc(-c2ccc3nccc(-c4ccnnc4)c3c2)cc1NS(=O)(=O)c1ccc(F)cc1F landed at 100

Quick note, remaining activity at 1 µM for Nc1cc(C(F)(F)F)c(-c2cc(N3CCOCC3)nc(N3CCOCC3)n2)cn1 landed at 100

Quick note, remaining activity at 1 µM for FC(F)c1nc2ccccc2n1-c1nc(N2CCOCC2)nc(N2CCOCC2)n1 landed at 86

Quick note, remaining activity at 1 µM for Cn1c(=O)n(-c2ccc(C(C)(C)C#N)cc2)c2c3cc(-c4cnc5ccccc5c4)ccc3ncc21 landed at 68
